- System: MS2 coat protein
- method: apparent KD of MS2 coat protein; designed switch direction (-1 OFF switch, 1 ON switch): -1; higher = weaker reporter binding
- measurement conditions: input ligand: FMN 200 uM
Kindly return yes (1) if reported apparent KD of MS2 coat protein is no lower than 60 nM; return no (0) if it is lower.

[[record]]
macromolecule_sequence = "CGGCAUGUCUGAGGAUAUCUGCACGAUUAGUGCAGAGAAGGCAGAACAUGAGGAUCACCCAUGUAGAUCAUUAACCGAUUAAUU [ENG1/7-A1] (Eterna round: R96, puzzle: Exclusion NG 1)"
cat = "yes (1)"

[[record]]
macromolecule_sequence = "AGAUGCUCAAGUCGACAUGAGGAUCACCCAUGUACAGUUAAUGAGGAUAUCUGAGACAAAUAGUAGGAGAAGGCGUGAACAUGA [Ex NG3 #10] (Eterna round: R96, puzzle: Exclusion NG 3)"
cat = "no (0)"

[[record]]
macromolecule_sequence = "CCUGAUCCACAGGAUAUGCUCAUCUAAUGAUGAGCAGAAGGGUGGACAUGAGGAUCACCCAUGUUUAUCAAUGG [Omei Ex6 D4] (Eterna round: R97, puzzle: Exclusion 6)"
cat = "yes (1)"

[[record]]
macromolecule_sequence = "CUAAAUCAUGUAGGAUAUGCGUGGCGAAGCUAUGCAGAAGGACAUGAGGAUCACCCAUGUGCUUCCGUCUGCGUACAGACGGAA [JL ENG1 1.17] (Eterna round: R96, puzzle: Exclusion NG 1)"
cat = "yes (1)"

[[record]]
macromolecule_sequence = "GUAGAGUCAGGAUAUACGAGAUCGAAAGAUCUUUGAUCCUAACAUGAGGAUCACCCAUGUAGAAGGGACUCUAC [Omei mod 3 to Eli's favorate candidate (ch.parushev)] (Eterna round: R97, puzzle: Exclusion 2)"
cat = "yes (1)"

[[record]]
macromolecule_sequence = "UUAUUUAGGUAGGAUAUCGAUAUUAAUUAUUAUCGAGAAGGGUCUACAUGAGGAUCACCCAUGUUAGCAUGUUU [LRO-Excl6-09-Rocketman] (Eterna round: R97, puzzle: Exclusion 6)"
cat = "no (0)"

[[record]]
macromolecule_sequence = "CGGGCAGCAGGAUAUACAUAGGUCAACAGAAAUGAGUAUUGACAUGAGGAUCACCCAUGUAGAAGGGCUGUACC [Eternabot (L2) Solution 96] (Eterna round: R97, puzzle: Exclusion 2)"
cat = "yes (1)"

[[record]]
macromolecule_sequence = "GAGAGCAACGUCAGGAUAUUUAACCAAAACGCGGUAGAGAAGGGACAUGAGGAUCACCCAUGUGACUUCGGGCA [Eternabot (L1) Solution 83] (Eterna round: R97, puzzle: Brourd's mod of Exclusion 4)"
cat = "no (0)"

[[record]]
macromolecule_sequence = "GAUUCAUAUGACUUUCUAUACAUGAGGAUCACCCAUGUUUGUUUUUUUUGUUUUUCGCUUUUUAGUCGUCUUAUUAU [Gravy 3] (Eterna round: R97, puzzle: Sensor, turn-off variant 1)"
cat = "no (0)"

